Target: T1, human PD-L1 (Acro, Catalog Number: H5229) (human, UniProt Q9NZQ7 19-238)
T1 construct: Soluble antigen in the BLI assay; also called antigen
T1 sequence (Q9NZQ7 19-238 limits assumed): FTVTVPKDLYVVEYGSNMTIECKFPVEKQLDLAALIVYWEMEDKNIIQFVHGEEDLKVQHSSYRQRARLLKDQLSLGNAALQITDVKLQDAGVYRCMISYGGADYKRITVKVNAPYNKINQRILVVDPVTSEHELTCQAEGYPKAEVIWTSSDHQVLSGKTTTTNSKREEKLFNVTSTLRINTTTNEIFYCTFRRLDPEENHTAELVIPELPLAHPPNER
Assay: BLI, Octet RED96e, antibody on AHC sensor, antigen 100 nM, 1:1 fit
Experimental: (2) Detection of samples on machines (Octet Data Acquisition 11.1.0.11): First, the sample was added into a 96-well plate (Greiner bio-one, 655209) with a system of 200 μL/well. Then the software parameters were set, the plate temperature was set to 30° C., and the frequency of collecting standard dynamic signals was 5.0 HZ. Next, the AHC sensor (Fortébio, Catalog Number: 18-0015) was pre-wetted with 1xPBST for 10 minutes, and then the sample was detected on the instrument. […]
Each record here notes measured koff.

binder | koff
1910G2HzL2H2 (antibody, V domains shown, Only the variable domains are tied to the name; Captured on an AHC sensor and detected with anti-human secondary antibody; also called humanized antibody 1910G2HzL2H2; 1910G2HzL2 + 1910G2HzH2) VH: EVQLVESGGGLVQPGGSLRLSCAASGFTFSNFWMTWVRQAPGKGLEWVASITHSGGITYYVDSVKGRFTISRDDAKSSLYLQMNSLRAEDTAVYYCSRDPTEAPFDYWGQGTLVTVSS VL: DIQMTQSPSSLSASVGDRVTITCQASQNINNYIAWYQQKPGKAPKQLIRYTSTLVSGVPSRFSGSGSGKDYTFTISSLQPEDIATYYCLQYDNVPNTFGQGTKLEIK | 0.00025 s⁻¹
1910G2HzL9H9 (antibody, V domains shown, Only the variable domains are tied to the name; Full chains are not tied to the name; also called humanized antibody 1910G2HzL9H9; 1910G2HzL9 + 1910G2HzH9) VH: EVQLVESGGGLVQPGGSLRLSCAASGFTFSNFWMSWVRQAPGKGLEWVASITHSGGITYYADSVKGRFTISRDDSKNTLYLQMNSLRAEDTAVYYCSRDPTEAPFDYWGQGTLVTVSS VL: DIQMTQSPSSLSASVGDRVTITCQASQNINNYIAWYQQKPGKAPKQLIRYTSTLVSGVPSRFSGSGSGKDFTFTISSLQPEDIATYYCLQYDNVPNTFGQGTKLEIK | 0.00021 s⁻¹
1910G2HzL7H7 (antibody, V domains shown, Only the variable domains are tied to the name; Full chains are not tied to the name; also called humanized antibody 1910G2HzL7H7; 1910G2HzL7 + 1910G2HzH7) VH: EVQLVESGGGLVQPGGSLRLSCAASGFTFSNFWMTWVRQAPGKGLEWVASITHSGGITYYADSVKGRFTISRDDSKSTLYLQMNSLRAEDTAVYYCSRDPTEAPFDYWGQGTLVTVSS VL: DIQMTQSPSSLSASVGDRVTITCQASQNINNYIAWYQQKPGKAPKQLIRYTSTLVSGVPSRFSGSGSGKDYTFTISSLQPEDIATYYCLQYDNVPNTFGQGTKLEIK | 0.000289 s⁻¹
1910G2HzL3H3 (antibody, V domains shown, Only the variable domains are tied to the name; Full chains are not tied to the name; also called humanized antibody 1910G2HzL3H3; 1910G2HzL3 + 1910G2HzH3) VH: EVQLVESGGGLVQPGGSLRLSCAASGFTFSNFWMSWVRQAPGKGLEWVASITHSGGITYYVDSVKGRFTISRDNAKSSLYLQMNSLRAEDTAVYYCSRDPTEAPFDYWGQGVMVTVSS VL: DIQMTQSPSSLSASVGDRVTITCQASQNINNYIAWYQQKPGKAPKQLIRYTSTLVSGTPSRFSGSGSGKDYTFTISNLQPEDIATYYCLQYDNVPNTFGQGTKLEIK | 0.000477 s⁻¹
